Some molecules, each annotated with its measured IC50.
- STUDY_SYSTEM: Histone deacetylase 1 (Homo sapiens, UniProt Q13547)
- Sequence (Q13547 whole entry): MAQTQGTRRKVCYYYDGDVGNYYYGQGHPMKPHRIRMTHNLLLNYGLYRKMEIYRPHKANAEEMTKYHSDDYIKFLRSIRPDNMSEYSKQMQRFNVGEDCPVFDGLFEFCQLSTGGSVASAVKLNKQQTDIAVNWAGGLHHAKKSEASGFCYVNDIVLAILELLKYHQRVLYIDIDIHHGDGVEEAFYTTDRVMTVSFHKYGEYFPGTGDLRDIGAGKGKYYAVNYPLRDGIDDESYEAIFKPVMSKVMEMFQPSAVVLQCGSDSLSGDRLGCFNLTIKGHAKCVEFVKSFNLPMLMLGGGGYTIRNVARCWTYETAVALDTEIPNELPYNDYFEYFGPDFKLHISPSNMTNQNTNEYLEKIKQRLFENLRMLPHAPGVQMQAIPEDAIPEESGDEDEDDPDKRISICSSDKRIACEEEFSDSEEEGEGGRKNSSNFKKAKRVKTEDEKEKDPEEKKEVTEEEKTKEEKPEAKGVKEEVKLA
Report as a plain number; the unit µM is understood.

{"columns": ["MOL_SMILES", "UNIT_TEXT", "IC50"],
 "data": [
  ["O=C(NO)c1ccc(CN2CC(=O)N(Cc3ccc(Cl)cc3)[C@H](Cc3ccccc3)C2=O)cc1", "µM", 9.2],
  ["O=C(NO)c1ccc(CN2CC(=O)N(Cc3cccc(Cl)c3)[C@H](Cc3ccccc3)C2=O)cc1", "µM", 8.55],
  ["O=C1CN(Cc2ccc(C(=O)NO)cc2)C(=O)[C@@H](Cc2ccccc2)N1", "µM", 8.27]
]}

Okay, now this molecule:
So, O=C(NO)c1ccc(CC(=O)N(CCO)c2ccccc2)cc1 ? Its IC50 was 1.78
